Biological target: NLRP3 inflammasome (Homo sapiens (Human), UniProt Q96P20)
Sequence (Q96P20 whole entry): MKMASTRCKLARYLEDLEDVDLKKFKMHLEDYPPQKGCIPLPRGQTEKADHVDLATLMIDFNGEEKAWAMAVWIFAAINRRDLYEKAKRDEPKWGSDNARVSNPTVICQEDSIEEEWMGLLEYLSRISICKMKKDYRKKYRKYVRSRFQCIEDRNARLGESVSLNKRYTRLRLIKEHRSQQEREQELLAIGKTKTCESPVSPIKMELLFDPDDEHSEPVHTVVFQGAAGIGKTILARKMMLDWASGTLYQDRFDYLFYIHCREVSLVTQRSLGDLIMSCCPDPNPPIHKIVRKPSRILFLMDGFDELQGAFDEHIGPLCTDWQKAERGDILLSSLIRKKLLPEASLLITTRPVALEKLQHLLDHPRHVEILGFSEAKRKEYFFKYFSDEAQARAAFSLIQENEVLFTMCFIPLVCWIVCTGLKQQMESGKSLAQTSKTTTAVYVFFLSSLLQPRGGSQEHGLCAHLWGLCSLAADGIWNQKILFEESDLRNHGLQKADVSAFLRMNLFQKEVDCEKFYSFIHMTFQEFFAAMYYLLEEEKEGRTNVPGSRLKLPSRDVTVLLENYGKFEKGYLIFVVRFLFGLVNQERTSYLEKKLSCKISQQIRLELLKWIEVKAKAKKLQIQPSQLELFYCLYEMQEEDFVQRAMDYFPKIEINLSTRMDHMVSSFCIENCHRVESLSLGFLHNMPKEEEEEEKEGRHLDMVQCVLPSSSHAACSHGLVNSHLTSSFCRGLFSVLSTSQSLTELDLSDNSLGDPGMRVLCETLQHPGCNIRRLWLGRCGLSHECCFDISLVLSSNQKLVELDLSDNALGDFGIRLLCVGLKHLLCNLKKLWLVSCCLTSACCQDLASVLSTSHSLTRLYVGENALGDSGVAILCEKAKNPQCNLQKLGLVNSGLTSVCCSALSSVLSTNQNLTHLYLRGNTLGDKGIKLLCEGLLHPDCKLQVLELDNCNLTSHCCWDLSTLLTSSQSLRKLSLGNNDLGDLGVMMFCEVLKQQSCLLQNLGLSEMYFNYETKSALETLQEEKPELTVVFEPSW
Assay: Evaluation of NLRP3 inflammasome inhibitory activity (inhibition of IL-1β production in LPS/Nigericin-stimulated THP1-Null cells)
Conditions: IL-1β production in THP1-Null cells, PMA, LPS 1 μg/mL, Nigericin 7.5 μmol/L, AlphaLISA
Exercise: for every item that follows, state its recorded IC50.
In your response, put the unit directly after the numeric value.

{"Chemical Smiles": "COC[C@H]1CCCN1c1nc2nn(-c3ccccc3C)cc2c(=O)[nH]1", "Assay Target": "NLRP3 inflammasome (Homo sapiens (Human), UniProt Q96P20)", "IC50": "4100 nM"}
{"Chemical Smiles": "O=c1[nH]c(N2CC3(CC(O)C3)C2)nc2nn(-c3ccc(C(F)(F)F)cc3Cl)cc12", "Assay Target": "NLRP3 inflammasome (Homo sapiens (Human), UniProt Q96P20)", "IC50": "15 nM"}
{"Chemical Smiles": "O=c1[nH]c(N2CCOCCO2)nc2nn(-c3ccc(C4CC4)cc3C(F)(F)F)cc12", "Assay Target": "NLRP3 inflammasome (Homo sapiens (Human), UniProt Q96P20)", "IC50": "23 nM"}

Could you tell me IC50 for each of these molecules? They are listed below.
1. Cc1cc(Br)ccc1-n1cc2c(=O)[nH]c(N3CCCOCC3)nc2n1
2. Cc1cc(Cl)cc(C#N)c1-n1cc2c(=O)[nH]c(N3CCOCC3)nc2n1
3. Cc1cc(C)c(-n2cc3c(=O)[nH]c(N4CC(F)(F)C4)nc3n2)c(C)c1

1. 22 nM
2. 60 nM
3. 11 nM
